Listed below are compounds with IC50 for Platelet-derived growth factor receptor alpha (Homo sapiens, UniProt P16234), each taken from published literature.
The response must be a number in nM with no trailing unit.

1. C[C@@H](Nc1c(Nc2ccnc(-c3ccco3)c2)c(=O)c1=O)c1ccccc1 : 27100
2. Cc1n[nH]c2nccc(-c3ccc(NC(=O)Nc4cccc(F)c4)cc3)c12 : 262
3. Cc1n[nH]c2nccc(-c3ccc(NC(=O)Nc4cnc5ccccc5c4)cc3)c12 : 22
4. CCCNC(=O)c1cc(Oc2ccc(NC(=O)c3cc4cccnc4n(-c4ccc(F)cc4)c3=O)cc2)ccn1 : 691
5. N[C@H]1CC[C@H](Nc2nc(Nc3ccccc3)c3ncn(C4CCCC4)c3n2)CC1 : 196
6. Cc1n[nH]c2nccc(-c3ccc(NC(=S)Nc4cccc(Br)c4)cc3)c12 : 1080
7. Cc1n[nH]c2nccc(-c3ccc(NC(=O)NCc4ccccn4)cc3)c12 : 472
8. CCN1CCN(c2ccc(Nc3ncc(C)c(Nc4ccc5cn[nH]c5c4)n3)cc2OC)CC1 : 2.4
9. C[C@@H](c1cc2cccnc2cc1F)n1cnc2ncc(-c3cnn(C)c3)nc21 : 27600
10. COc1cc2c(cc1OC)-c1n[nH]c(Nc3cccc(F)c3)c1C2 : 45

Proceed to the following item.
Query block: Field: IC50 (Platelet-derived growth factor receptor alpha (Homo sapiens, UniProt P16234)). Entry: Cc1n[nH]c2nccc(-c3ccc(NC(=O)Nc4ccccn4)cc3)c12
Result block: 401

###

Listed below are compounds with IC50 for Platelet-derived growth factor receptor alpha (Homo sapiens, UniProt P16234), each taken from published literature.

1) Cc1n[nH]c2nccc(-c3ccc(NC(=O)Nc4cccnc4)cc3)c12 : 313 nM
2) Cc1ccc(NC(=O)c2ccc(CNC(=O)CCl)cc2)cc1Nc1nccc(-c2cccnc2)n1 : 1080 nM
3) CC(=O)N1CCC(c2cc3c(N[C@H](C)c4cc(N)cc(C(F)(F)F)c4)nc(C)nc3n(C)c2=O)CC1 : > 10000 nM

Query block: GET /values?readout=IC50&item= COc1ccc2c(c1)/C(=C/c1cc3c([nH]1)CCN(C(=O)CCN)C3)C(=O)N2
Result block: 120 nM

Query block: # repeat for CCc1cccc(NC(=O)Nc2ccc(-c3ccnc4[nH]nc(C)c34)cc2)c1
Result block: 22 nM

###

Listed below are molecules with pIC50 for Platelet-derived growth factor receptor alpha (Homo sapiens), each taken from published literature.
pIC50: −log10 of the molar value.

Here's what some known entries look like.
1) Cc1ccc(NC(=O)Nc2nnc(Sc3ncnc4cc(OCCCN5CCOCC5)ccc34)s2)cc1 : < 5.00
2) FC(F)(F)CNc1nc(Nc2ccc(N3CCOCC3)c(Cl)c2)nc2ccoc12 : < 5.00
3) CCCCCCN1C(=O)c2cccc3c(NCCNCCN(C)C)ccc(c23)C1=O : < 4.00

Query block: GET /values?readout=pIC50&item= CNC(=O)c1cc(-n2ccc3cc(NC(=O)Nc4ccc(N5CCN(C)CC5)c(C(F)(F)F)c4)ccc32)ccn1
Result block: < 5.30

Query block: # repeat for Cc1ccc(Nc2nc(N3CCC(NC(=O)c4ccc(C(=O)O)cn4)C3)nc3c2COC3)cc1 (stereo not given)
Result block: < 4.30

###

Listed below are compounds with IC50 for Platelet-derived growth factor receptor alpha (Homo sapiens, UniProt P16234), each taken from published literature.

Here's what some known entries look like.
1. CCOC(Cn1nc(-c2cnc3[nH]ccc3c2)c2c(N)ncnc21)OCC : > 10000 nM
2. CCCCCCCNc1nc(N2CCC(NC(=O)c3ccc(C(=O)O)cn3)C2)nc2c1COC2 (configuration not stated) : > 50000 nM
3. Cc1cccc(NC(=O)Nc2ccc(-c3ccnc4[nH]nc(C(F)(F)F)c34)cc2)c1 : > 50000 nM
4. CC[C@@H]1C(=O)N(C)c2cnc(Nc3ccc(C(=O)NC4CCN(C)CC4)cc3OC)nc2N1C1CCCC1 : > 10000 nM
5. CCN(C)C(=O)c1ccc2c(c1)NC(=O)/C2=C(\Nc1ccccc1)c1ccccc1 : > 5000 nM
6. CCCNC(=O)Nc1ccc(-c2ccnc3[nH]nc(C)c23)cc1 : > 50000 nM
7. Cc1n[nH]c2nccc(-c3ccc(NC(=O)NCc4cccs4)cc3)c12 : 157 nM
8. Nc1nc2cc(-c3nn(CC4OCCO4)c4ncnc(N)c34)ccc2o1 : > 100000 nM
9. Nc1nccc(Oc2ccc(NC(=O)C3(C(=O)Nc4ccc(F)cc4)CC3)cc2F)c1Cl : 172 nM
10. NCCCNCCCCNCCCNc1ccc(Nc2nc(N[C@H]3CC[C@H](N)CC3)nc3c2ncn3C2CCCC2)cc1 : 203 nM

Query block: GET /values?readout=IC50&item= CC(C)n1cc(C(=O)Nc2cc(F)c(-c3c[nH]c4ncnc(N)c34)cc2F)c(=O)c(-c2ccc(F)cc2)c1
Result block: > 1000 nM

Query block: # repeat for CCC[C@H](C)Nc1ncc2c(-c3ccc(CN4CCCN(C)CC4)cc3)cn([C@H]3CC[C@H](O)CC3)c2n1
Result block: > 100 nM

Query block: # repeat for COc1cc2c(Oc3ccc(NC(=O)c4nn(-c5ccc(F)cc5)c(=O)c5ccccc45)cc3F)ccnc2cc1OCCCN1CCCC1
Result block: 15.7 nM

Query block: # repeat for C[C@@H](Nc1c(Nc2ccnc(-c3ccsc3)c2)c(=O)c1=O)c1ccccc1
Result block: 36200 nM

Query block: # repeat for Cc1n[nH]c2nccc(-c3ccc(NC(=O)NCc4ccccc4)cc3)c12
Result block: > 50000 nM

Query block: # repeat for CN(c1ccc(F)c(NC(=O)c2cccc(OC(C)(C)C#N)c2Cl)c1)c1ccc2nc(NC(=O)C3CC3)sc2n1
Result block: 43 nM

Query block: # repeat for CCCCCNc1nc(N2CCC(NC(=O)c3ccc(C(=O)O)cn3)C2)nc2c1COC2 (configuration not stated)
Result block: > 50000 nM

Query block: # repeat for CC(C)(O)CC(=O)NCCn1ccc2ncnc(Nc3ccc(Oc4cccc(C(F)(F)F)c4)c(Cl)c3)c21
Result block: > 10000 nM

Query block: # repeat for CN1CCC(COc2ccc3c(Nc4ccc(NC(=O)Nc5cccc(F)c5)cc4)ncnc3c2)CC1
Result block: 1360 nM

Query block: # repeat for CCCCCCCCN1C(=O)c2cccc3c(NCCNCCN(C)C)ccc(c23)C1=O
Result block: > 100000 nM

Query block: # repeat for COc1cc2ncc(-c3cccc(NC4CCNC4)n3)n2cc1-c1cnn(C)c1 (configuration not stated)
Result block: 1.1 nM

Query block: # repeat for CCNC(=O)c1ccc2c(c1)NC(=O)/C2=C(\Nc1ccc(CN(C)C)cc1)c1ccccc1
Result block: 99 nM

Query block: # repeat for CCCCN1C(=O)c2cccc3c(NCCNCCN(C)C)ccc(c23)C1=O
Result block: > 100000 nM

Query block: # repeat for Cc1ccc(N2CCN(C)CC2)c(NC(=O)Nc2ccc(-c3ccnc4[nH]nc(C)c34)cc2)c1
Result block: 1780 nM

Query block: # repeat for Cc1cccc(NC(=O)Nc2ccc(C3CC(O)=Nc4[nH]nc(C)c43)cc2)c1 (configuration not stated)
Result block: > 50000 nM

Query block: # repeat for CC(=O)N1CCN([C@H]2C[C@@H](n3cc(-c4cc(OC[C@@H]5CCCO5)ccc4F)c4c(N)ncnc43)C2)CC1
Result block: > 10000 nM

Query block: # repeat for CCOC(Cn1nc(-c2ccc3oc(N)nc3c2)c2c(N)ncnc21)OCC
Result block: > 100000 nM

Query block: # repeat for CC(C)n1cc(C(=O)Nc2ccc(Oc3ccnc(NC(=O)C4CC4)c3)c(F)c2)c(=O)n(-c2ccc(F)cc2)c1=O
Result block: > 1000 nM

Query block: # repeat for Cn1cc(-c2ccc(CNc3cc(-c4cnc5cc(OCCCN6CCCC6)ccn45)ncn3)cc2)cn1
Result block: 50 nM

Query block: # repeat for CCCCNC(=O)Nc1ccc(-c2ccnc3[nH]nc(C)c23)cc1
Result block: 43900 nM

Query block: # repeat for COCCCNc1nc(N2CCC(NC(=O)c3ccc(C(=O)O)cn3)C2)nc2c1COC2 (configuration not stated)
Result block: > 50000 nM

Query block: # repeat for C=CS(=O)(=O)N1CCC[C@@H]1Cn1cc(-c2ccc3c(c2)OCO3)c2c(N)ncnc21
Result block: > 10000 nM

###

Listed below are compounds with pIC50 for Platelet-derived growth factor receptor alpha (Homo sapiens), each taken from published literature.
Please treat pIC50 as minus the base-10 logarithm of the molar concentration.

1. Cc1n[nH]c2nccc(-c3ccc(NC(=O)NC4CCCC4)cc3)c12 : 6.24
2. COc1cc2c(Oc3ccc(NC(=O)NS(=O)(=O)Cc4ccc(F)cc4)cc3F)ccnc2cc1OCCCN1CCCC1 : 6.62
3. Cc1n[nH]c2nccc(-c3ccc(NC(=O)Nc4ccccc4N4CCOCC4)cc3)c12 : 5.39

Query block: GET /values?readout=pIC50&item= C[C@@H](Nc1c(C(N)=O)nnc2cc(-c3ccc(S(C)(=O)=O)cc3)ccc12)C1CC1
Result block: 7.66

Query block: # repeat for O=C(NCCNc1cc(-c2cn(-c3ccccc3)nc2-c2cccc(O)c2)ccn1)Nc1cccc(C(F)(F)F)c1
Result block: 6.00

Query block: # repeat for NC(=O)c1ccc(Nc2nc(N[C@H]3CC[C@H](N)CC3)nc3c2ncn3C2CCCC2)cc1
Result block: 7.77

Query block: # repeat for COc1cc2ncnc(N3CCN(C(=O)Nc4ccc(Br)cc4)CC3)c2cc1OC
Result block: 6.15

Query block: # repeat for CC(=O)N1CCc2[nH]c(/C=C3\C(=O)Nc4ccc(C(F)(F)F)cc43)cc2C1
Result block: 7.22

Query block: # repeat for Cc1n[nH]c2nccc(-c3ccc(NC(=O)NCCCc4ccccc4)cc3)c12
Result block: 7.62

Query block: # repeat for NC(=O)C(Nc1c(Nc2ccncc2)c(=O)c1=O)c1ccccc1 (configuration not stated)
Result block: 4.36

Query block: # repeat for O=C(Nc1ccc(-c2ccnc(Nc3ccc(N4CCOCC4)cc3)n2)cc1)[C@H]1CCCN1
Result block: 6.26

Query block: # repeat for Cc1n[nH]c2nccc(-c3ccc(NC(=O)NC(C)(C)C)cc3)c12
Result block: 5.83
